Target: hCCR4 (Chem5-hCCR4 cells) (Homo sapiens)
Experiment: Calcium flux assay (CCL22-stimulated, FLIPR Calcium 6 dye)
Assay type: cell-based
Details: Table 3, CCL22 1.5 nM, read-out: Potency (IC50)
Protocol: Calcium Flux Assay. Compounds were evaluated in a calcium flux assay substantially performed as follows. Chem5-hCCR4 cells (EMD Millipore, Hayward, CA; HTS009C) were cultured under standard conditions and frozen in aliquots of 10×10^6 cells/mL. […] Assay plates and working solution of CCL22 were transferred to the FlexStation plate reader (Molecular Devices) at 37° C. for 5 min of equilibration. Fluorescence recordings at 485 excitation/525 emission were performed at 2.5 second intervals. […]
pIC50: −log10 of the molar value.
Listed molecules paired with reported pIC50

See these solved cases before continuing.
>>> endpoint_result("C[C@@H](Nc1nc(N2CC([C@H]3CCCN(CCO)C3)C2)ncc1F)c1ccc(Cl)cc1Cl")
"6.30 to 7.00"
>>> endpoint_result("C[C@@H](Nc1nc(N2CC([C@H]3CCCN([C@H]4C[C@](C)(C(=O)O)C4)C3)C2)ncc1C(F)(F)F)c1ccc(Cl)cc1Cl")
"> 7.00"
>>> endpoint_result("Cc1cnc(N2CC([C@H]3CCCN(CCN4CCCC4=O)C3)C2)nc1N[C@H](C)c1ccc(Cl)cc1Cl")
"> 7.00"
>>> endpoint_result("C[C@@H](Nc1nc(N2CC([C@H]3CCCN([C@H]4C[C@@H](C(=O)O)C4)C3)C2)cnc1C#N)c1ccc(Cl)cc1Cl")
"6.30 to 7.00"
>>> endpoint_result("C[C@@H](Nc1nc(N2CC([C@H]3CCCN(CCO)C3)C2)ncc1C#N)c1ccc(S(C)(=O)=O)cc1Cl")
"< 6.30"
>>> endpoint_result("C[C@@H](Nc1nc(N2CC([C@H]3CCCN([C@H]4C[C@](C)(C(=O)O)C4)C3)C2)ncc1Br)c1ccc(F)cc1Cl")
"> 7.00"

Kindly state the measured pIC50 obtained for C[C@@H](Nc1nc(N2CC([C@H]3CCCN([C@H]4C[C@](C)(C(=O)O)C4)C3)C2)nc2sccc12)c1ccc(Cl)cc1Cl with hCCR4 (Chem5-hCCR4 cells) (Homo sapiens). > 7.00

Could you share what pIC50 was measured for C[C@@H](Nc1nc(N2CC([C@H]3CCCN([C@H]4C[C@@H](C(=O)O)C4)C3)C2)ncc1F)c1ccc(Cl)cc1Cl , tested on hCCR4 (Chem5-hCCR4 cells) (Homo sapiens)? < 6.30

Give recorded pIC50 with hCCR4 (Chem5-hCCR4 cells) (Homo sapiens) for the following molecule: Cc1cnc(N2CC([C@H]3CCCN([C@H]4C[C@@H](C(=O)O)C4)C3)C2)nc1N[C@H](C)c1ccc(Cl)cc1Cl > 7.00

Give recorded pIC50 with hCCR4 (Chem5-hCCR4 cells) (Homo sapiens) for the following molecule: C[C@]1(C(=O)O)C[C@H](N2CCC[C@H](C3CN(c4ncc(Cl)c(NCc5ccc(Cl)cc5Cl)n4)C3)C2)C1 < 6.30

# value lookup — system hCCR4 (Chem5-hCCR4 cells) (Homo sapiens), readout pIC50, item C[C@@H](Nc1nc(N2CC([C@H]3CCCN([C@H]4C[C@](C)(C(=O)O)C4)C3)C2)nc2ccsc12)c1ccc(Cl)cc1Cl > 7.00

Observed pIC50 on hCCR4 (Chem5-hCCR4 cells) (Homo sapiens) for C[C@@H](Nc1nc(N2CC([C@H]3CCCN(CCO)C3)C2)ncc1Cl)c1ccc(Cl)cc1Cl , please. > 7.00

Which measured pIC50 belongs to C[C@@H](Nc1nc(N2CC([C@H]3CCCN(CCO)C3)C2)ncc1Cl)c1ccc(F)cc1Cl , tested on hCCR4 (Chem5-hCCR4 cells) (Homo sapiens)? 6.30 to 7.00

###

# Lookup of reported pIC50 keyed by entry
Molecular target: hCCR4 (Chem5-hCCR4 cells) (Homo sapiens, UniProt P51679)
Sequence (P51679 whole entry): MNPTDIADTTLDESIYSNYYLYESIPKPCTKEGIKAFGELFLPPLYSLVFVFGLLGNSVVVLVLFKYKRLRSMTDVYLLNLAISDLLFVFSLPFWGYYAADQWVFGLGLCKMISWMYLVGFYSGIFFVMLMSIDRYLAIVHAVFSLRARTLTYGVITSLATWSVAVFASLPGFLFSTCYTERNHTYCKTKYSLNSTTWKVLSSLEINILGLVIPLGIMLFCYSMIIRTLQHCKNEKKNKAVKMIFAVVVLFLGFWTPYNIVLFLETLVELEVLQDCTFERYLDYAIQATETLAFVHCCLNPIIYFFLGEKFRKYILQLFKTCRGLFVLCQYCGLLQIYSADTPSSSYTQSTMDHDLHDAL
Test: Calcium flux assay (CCL22-stimulated, FLIPR Calcium 6 dye)
Type: cell-based
Settings: Table 3, CCL22 1.5 nM, read-out: Potency (IC50)
pIC50: −log10 of the molar value.

The examples below pair each entry with its known result.
>>> endpoint_result("C[C@@H](Nc1nc(N2CC([C@H]3CCCN([C@H]4C[C@@](C)(C(=O)O)C4)C3)C2)ncc1Cl)c1ccc(Cl)cc1Cl")
"> 7.00"
>>> endpoint_result("C[C@@H](Nc1nc(N2CC([C@H]3CCCN([C@H]4C[C@](C)(C(=O)O)C4)C3)C2)nc2c1CCC2)c1ccc(Cl)cc1Cl")
"> 7.00"
>>> endpoint_result("C[C@@H](Nc1nc(N2CC([C@H]3CCCN([C@H]4C[C@@H](C(=O)O)C4)C3)C2)ncc1Br)c1ccc(Cl)cc1Cl")
"> 7.00"
>>> endpoint_result("C[C@@H](Nc1nc(N2CC([C@H]3CCCN([C@H]4C[C@@H](C(=O)O)C4)C3)C2)nc2ccsc12)c1ccc(Cl)cc1Cl")
"> 7.00"

Short answer please: pIC50, hCCR4 (Chem5-hCCR4 cells) (Homo sapiens, UniProt P51679), entry Cc1cnc(N2CC([C@H]3CCCN(C4CC(CO)C4)C3)C2)nc1N[C@H](C)c1ccc(Cl)cc1Cl (stereo partly drawn) > 7.00

For the record C[C@@H](Nc1cncc(N2CC([C@H]3CCCN(CCO)C3)C2)n1)c1ccc(Cl)cc1Cl , what value of pIC50 is listed for hCCR4 (Chem5-hCCR4 cells) (Homo sapiens, UniProt P51679)? 6.30 to 7.00

###

Biological target: hCCR4 (Chem5-hCCR4 cells) (Homo sapiens, UniProt P51679)
Assay: Calcium flux assay (CCL22-stimulated, FLIPR Calcium 6 dye)
Assay type: cell-based
Settings: Table 5, CCL22 1.5 nM, read-out: Potency (IC50)
Procedure: Calcium Flux Assay. Compounds were evaluated in a calcium flux assay substantially performed as follows. Chem5-hCCR4 cells (EMD Millipore, Hayward, CA; HTS009C) were cultured under standard conditions and frozen in aliquots of 10×10^6 cells/mL. […] Assay plates and working solution of CCL22 were transferred to the FlexStation plate reader (Molecular Devices) at 37° C. for 5 min of equilibration. Fluorescence recordings at 485 excitation/525 emission were performed at 2.5 second intervals. […]
experimental_readout: IC50

>>> endpoint_result("C[C@@H](Nc1nc(N2CC([C@H]3CCCN(C4CC(C)(C(=O)O)C4)C3)C2)nc2scnc12)c1ccc(Cl)cc1Cl (single isomer, unassigned) [Example 71, trifluoroacetic acid]")
"< 100 nM"
>>> endpoint_result("Cc1nc(N2CC([C@H]3CCCN(C4CC(C)(C(=O)O)C4)C3)C2)nc(N[C@H](C)c2ccc(Cl)cc2Cl)c1F (single isomer, unassigned) [Example 91, trifluoroacetic acid]")
"< 100 nM"
>>> endpoint_result("C[C@@H](Nc1nc(N2CC([C@H]3CCCN(C4CC(C)(C(=O)O)C4)C3)C2)nc2nc[nH]c12)c1ccc(Cl)cc1Cl (single isomer, unassigned) [Example 69]")
"100 to 500 nM"

Consider the compound C[C@@H](Nc1nc(N2CC([C@H]3CCCN([C@H]4C[C@@H](C(=O)O)C4)C3)C2)ncc1C#N)c1ccc(Cl)cc1Cl [Example 93] and give its measured IC50. 100 to 500 nM

Value lookup for IC50; key = COc1cnc(N2CC([C@H]3CCCN(C4CC(C)(C(=O)O)C4)C3)C2)nc1N[C@H](C)c1ccc(Cl)cc1Cl (single isomer, unassigned) [Example 83] < 100 nM

###

Quick reference: pIC50 of the listed items.
Molecular target: hCCR4 (Chem5-hCCR4 cells) (Homo sapiens, UniProt P51679)
Test: Calcium flux assay (CCL22-stimulated, FLIPR Calcium 6 dye)
Format: cell-based
Details: Table 3, CCL22 1.5 nM, read-out: Potency (IC50)
pIC50: −log10 of the molar value.

Completed entries (count: 2):
>>> endpoint_result("Cc1nc(N2CC([C@H]3CCCN([C@H]4C[C@](C)(C(=O)O)C4)C3)C2)nc(N[C@H](C)c2ccc(Cl)cc2Cl)c1Cl")
"> 7.00"
>>> endpoint_result("C[C@@H](Nc1nc(N2CC([C@H]3CCCN([C@H]4C[C@@H](C(=O)O)C4)C3)C2)ncc1Cl)c1ccc(Cl)cc1Cl")
"> 7.00"

What does the data say about its pIC50? Entry: C[C@@H](Nc1nc(N2CC([C@H]3CCCN([C@H]4C[C@](C)(C(=O)O)C4)C3)C2)ncc1Cl)c1ccc(Cl)cc1Cl > 7.00

###

Target: hCCR4 (Chem5-hCCR4 cells) (Homo sapiens)
Assay: Calcium flux assay (CCL22-stimulated, FLIPR Calcium 6 dye)
Assay type: cell-based
Details: Table 3, CCL22 1.5 nM, read-out: Potency (IC50)
experimental_readout: IC50

>>> endpoint_result("C[C@@H](Nc1nc(N2CC([C@H]3CCCN([C@H]4C[C@](C)(C(=O)O)C4)C3)C2)ncc1F)c1ccc(Cl)cc1Cl [Example 47]")
"100 to 500 nM"
>>> endpoint_result("CC[C@]1(C(=O)O)C[C@H](N2CCC[C@H](C3CN(c4ncc(Cl)c(N[C@H](C)c5ccc(Cl)cc5Cl)n4)C3)C2)C1 [Example 23]")
"100 to 500 nM"
>>> endpoint_result("Cc1ncc(N2CC([C@H]3CCCN(CCO)C3)C2)nc1N[C@H](C)c1ccc(Cl)cc1Cl [Example 3]")
"> 500 nM"

Quick one: IC50 of C[C@@H](Nc1nc(N2CC([C@H]3CCCN(CCO)C3)C2)ncc1Br)c1ccc(F)cc1Cl [Example 43] ? < 100 nM

Consider the compound shown here: C[C@@H](Nc1nc(N2CC([C@H]3CCCN(C4CCCC4C(=O)O)C3)C2)cnc1C#N)c1ccc(Cl)cc1Cl (stereo partly shown) [Example 6] What is its recorded IC50? 100 to 500 nM

What value of IC50 has been recorded for this entry: C[C@@H](Nc1nc(N2CC([C@H]3CCCN(CCO)C3)C2)ncc1C(=O)O)c1ccc(Cl)cc1Cl [Example 33] > 500 nM

Item C[C@@H](Nc1nc(N2CC([C@H]3CCCN([C@H]4C[C@](C)(C(=O)O)C4)C3)C2)ncc1C1CC1)c1ccc(Cl)cc1Cl [Example 41] has what recorded IC50? < 100 nM

Find the recorded IC50 belonging to Cc1cnc(N2CC([C@H]3CCCN([C@H]4C[C@](C)(C(=O)O)C4)C3)C2)nc1N[C@H](C)c1ccc(Cl)cc1Cl [Example 36] and report it. 100 to 500 nM

Request the reported IC50 associated with Cc1nc(N2CC([C@H]3CCCN([C@H]4C[C@](C)(C(=O)O)C4)C3)C2)nc(N[C@H](C)c2ccc(Cl)cc2Cl)c1C [Example 22] < 100 nM

Can you look up the measured IC50 of C[C@@H](Nc1nc(N2CC([C@H]3CCCN(CCO)C3)C2)ncc1Br)c1ccc(Cl)cc1Cl [Example 11] for me? < 100 nM

Quick check: IC50 of Cc1cnc(N2CC([C@H]3CCCN(CC(C)(C)O)C3)C2)nc1N[C@H](C)c1ccc(Cl)cc1Cl [Example 19] ? < 100 nM

Returns the measured IC50 for the input compound. Input: C[C@@H](Nc1nc(N2CC([C@H]3CCCN([C@H]4C[C@](C)(C(=O)O)C4)C3)C2)ncc1C(C)(C)O)c1ccc(Cl)cc1Cl [Example 35] < 100 nM

Which value of IC50 has been reported for C[C@@H](Nc1nc(N2CC([C@H]3CCCN(CCO)C3)C2)cnc1C#N)c1ccc(S(C)(=O)=O)cc1Cl [Example 7] in the records? > 500 nM

Measured values drawn from patent US12098139B2 for this set.
